- target.entity: Transient receptor potential cation channel subfamily M member 2 (Homo sapiens)
- Sequence (O94759 whole entry): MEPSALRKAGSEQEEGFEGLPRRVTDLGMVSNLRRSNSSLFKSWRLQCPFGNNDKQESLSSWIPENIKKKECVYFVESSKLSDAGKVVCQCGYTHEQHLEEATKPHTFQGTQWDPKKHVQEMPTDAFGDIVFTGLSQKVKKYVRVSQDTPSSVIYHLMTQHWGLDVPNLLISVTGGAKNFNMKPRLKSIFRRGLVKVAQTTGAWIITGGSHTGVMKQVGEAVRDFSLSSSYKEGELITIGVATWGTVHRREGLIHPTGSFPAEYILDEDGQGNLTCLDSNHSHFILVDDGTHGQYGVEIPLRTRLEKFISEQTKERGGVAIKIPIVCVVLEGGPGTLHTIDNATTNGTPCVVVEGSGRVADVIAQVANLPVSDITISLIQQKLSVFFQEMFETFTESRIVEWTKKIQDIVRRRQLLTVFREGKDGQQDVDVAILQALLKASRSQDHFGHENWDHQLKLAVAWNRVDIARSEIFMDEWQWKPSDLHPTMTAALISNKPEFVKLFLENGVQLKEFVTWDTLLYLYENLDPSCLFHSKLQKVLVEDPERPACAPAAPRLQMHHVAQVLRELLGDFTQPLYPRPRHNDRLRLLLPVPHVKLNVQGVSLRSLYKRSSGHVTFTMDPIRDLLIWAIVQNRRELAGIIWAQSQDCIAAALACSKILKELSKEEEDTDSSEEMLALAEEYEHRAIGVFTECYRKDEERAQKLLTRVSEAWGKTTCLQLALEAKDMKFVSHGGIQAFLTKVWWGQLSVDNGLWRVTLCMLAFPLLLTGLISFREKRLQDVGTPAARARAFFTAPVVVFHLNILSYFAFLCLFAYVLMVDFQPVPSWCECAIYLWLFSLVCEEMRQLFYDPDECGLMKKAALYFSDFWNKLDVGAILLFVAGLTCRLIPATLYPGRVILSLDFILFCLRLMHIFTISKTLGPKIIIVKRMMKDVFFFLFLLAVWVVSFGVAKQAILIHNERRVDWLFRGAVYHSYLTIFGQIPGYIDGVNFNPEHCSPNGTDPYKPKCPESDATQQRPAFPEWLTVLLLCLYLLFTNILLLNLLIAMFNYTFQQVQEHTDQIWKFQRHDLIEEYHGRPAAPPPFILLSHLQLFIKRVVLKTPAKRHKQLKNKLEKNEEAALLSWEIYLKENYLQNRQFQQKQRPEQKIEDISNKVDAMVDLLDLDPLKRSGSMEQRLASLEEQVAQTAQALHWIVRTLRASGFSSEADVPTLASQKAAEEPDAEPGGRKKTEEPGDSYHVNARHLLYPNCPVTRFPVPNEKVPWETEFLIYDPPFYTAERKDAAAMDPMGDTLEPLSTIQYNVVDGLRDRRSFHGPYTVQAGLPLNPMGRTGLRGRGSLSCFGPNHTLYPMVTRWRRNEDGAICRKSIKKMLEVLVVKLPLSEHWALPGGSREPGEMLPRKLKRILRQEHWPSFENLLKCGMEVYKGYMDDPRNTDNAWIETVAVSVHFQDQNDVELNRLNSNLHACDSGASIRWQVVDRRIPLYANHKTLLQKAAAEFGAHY
- experiment.summary: Inhibition of human TRPM2 expressed in HEK293T cells cotransfected with GFP assessed as reduction in ADPR-induced current by whole cell patch-clamp method
observation.type: IC50 (µM)
Answer in µM, number only, no unit symbol.

{"columns": ["structure.string", "target.entity", "IC50, µM"],
 "data": [
  ["CCN(CC)CCn1c2ccccc2n2c(C(=O)c3cc4ccccc4o3)c(C)nc12", "Transient receptor potential cation channel subfamily M member 2 (Homo sapiens)", 8.1]
]}

What does the record list as IC50 for CCN(CC)CCn1c2ccccc2n2c(C(=O)c3ccc(-c4ccccc4)cc3)c(C)nc12 ?
6.2
